Numbers sourced from PubChem BioAssay (NCI).

test system: SF-268 CNS; assay: NCI-60 one-dose screen, 48 h (100 = growth as untreated, 0 = no growth, -100 = all killed); settings: 10 µM unless noted
About 83,000 compounds went through this panel and 20% of them were active in at least one assay; those are over-represented in the sample as a whole.
just bin them by growth: bottom: < 40%; middle: ≥ 40% and < 80%; top: ≥ 80%

[[record]]
molecule = "C=C(C=O)[C@@H]1CC[C@]2(C)[C@H](C(=O)C=C3[C@H]4C[C@](C)(C(=O)OC)CC[C@]4(C)CC[C@]32C)[C@@]1(C)CCC#N"
group = "bottom"

[[record]]
molecule = "O=S(=O)(Nc1ccc2c(c1)OCO2)c1ccc(-c2cnc(C3CC3)o2)cc1"
group = "middle"

[[record]]
molecule = "CCc1ccc(SC2c3ccc(N(CC)CC)cc3Oc3nc(N)c(C#N)c(N)c32)cc1 (stereo not drawn)"
group = "bottom"

[[record]]
molecule = "CNc1ncc2cc(-c3ccc(-c4ncccc4F)cc3Cl)c(=O)n(CC3OCC(N)CO3)c2n1 (stereo not drawn)"
group = "bottom"

[[record]]
molecule = "Cc1ccc(C2=NN(C)C(=O)C3(CCCC3)C2)cc1"
group = "top"

[[record]]
molecule = "Cc1ccc(-c2cc3nc(C(Cl)Cl)nc(-c4ccco4)n3n2)cc1"
group = "bottom"


Bin this entry: N/C(=N\C(N)=N\c1nc2ccccc2s1)c1ccc(C(F)(F)F)cc1 middle

Pick a category. Item: COc1cc2nc(Cl)nc(Nc3cccc(C4=Nc5c(N)nc(N)nc5NC(c5ccc(F)cc5)C4)c3)c2cc1OC (stereo not drawn) middle

State the class of the molecule shown: C=C(C)[C@@H]1CC[C@]2(COCCCNCCC#N)CC[C@]3(C)[C@H](CC[C@@H]4[C@@]5(C)CC[C@H](OCCCNCCC#N)C(C)(C)[C@@H]5CC[C@]43C)[C@@H]12 middle

Input CCOC(=O)c1c(N)c(C#N)cn1-c1cc(OC)c(OC)c(OC)c1 ; output its category top

For this molecule, which bin applies? Cc1ccc(-n2cc(/C=C/C(=O)c3ccc(O)cc3)c(-c3ccc(S(C)(=O)=O)cc3)n2)cc1 top

Sort NC(N)=Nc1ccc(Oc2cccc(NC(N)=Nc3ccc(Br)c(C(F)(F)F)c3)c2)cc1 into one of the categories. bottom

State the class of the molecule shown: CCO/C=N/C1=C(C#N)C(c2ccc(OC)cc2)c2sc3c(CC)cccc3c2O1 (stereo not drawn) middle

State the class of the molecule shown: CC(O)c1cc2ccccc2c(=O)o1 (stereo not drawn) top

Exercise: read the entry C#Cc1nc(C(C)=O)cs1 and state which class it falls under. top

Note: place this molecule into its band. Item: O=C1CCC(N2C(=O)c3ccc(NS(=O)(=O)c4ccccc4OC(F)(F)F)cc3C2=O)C(=O)N1 (stereo not drawn) middle
